Biological target: Lck (Homo sapiens, UniProt P06239)
Sequence (P06239 2-509): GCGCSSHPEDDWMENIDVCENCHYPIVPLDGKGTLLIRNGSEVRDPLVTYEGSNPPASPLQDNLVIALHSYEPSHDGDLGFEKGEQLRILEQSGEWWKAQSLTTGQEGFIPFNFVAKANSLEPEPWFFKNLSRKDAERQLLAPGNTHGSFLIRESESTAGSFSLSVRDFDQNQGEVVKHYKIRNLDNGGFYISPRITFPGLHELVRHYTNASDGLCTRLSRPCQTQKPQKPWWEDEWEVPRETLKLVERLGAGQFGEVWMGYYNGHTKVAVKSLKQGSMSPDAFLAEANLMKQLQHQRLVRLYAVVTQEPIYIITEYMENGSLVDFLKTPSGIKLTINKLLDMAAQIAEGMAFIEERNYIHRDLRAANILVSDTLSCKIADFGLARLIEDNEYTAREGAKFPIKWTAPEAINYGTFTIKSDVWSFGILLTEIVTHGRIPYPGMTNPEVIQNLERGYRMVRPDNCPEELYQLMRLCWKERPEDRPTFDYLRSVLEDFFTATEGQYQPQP
measurement-name: IC50 (µM)
Report the value in µM with no unit label.

Input line: Output measured IC50 for this item: `Oc1c(Br)cc(-c2cc(Br)c(O)c(Br)c2O)c(O)c1Br`
Output line: 16

###

Biological target: ZAP-70 (Homo sapiens, UniProt P43403)
Construct: gene ZAP70
Sequence (P43403 1-619): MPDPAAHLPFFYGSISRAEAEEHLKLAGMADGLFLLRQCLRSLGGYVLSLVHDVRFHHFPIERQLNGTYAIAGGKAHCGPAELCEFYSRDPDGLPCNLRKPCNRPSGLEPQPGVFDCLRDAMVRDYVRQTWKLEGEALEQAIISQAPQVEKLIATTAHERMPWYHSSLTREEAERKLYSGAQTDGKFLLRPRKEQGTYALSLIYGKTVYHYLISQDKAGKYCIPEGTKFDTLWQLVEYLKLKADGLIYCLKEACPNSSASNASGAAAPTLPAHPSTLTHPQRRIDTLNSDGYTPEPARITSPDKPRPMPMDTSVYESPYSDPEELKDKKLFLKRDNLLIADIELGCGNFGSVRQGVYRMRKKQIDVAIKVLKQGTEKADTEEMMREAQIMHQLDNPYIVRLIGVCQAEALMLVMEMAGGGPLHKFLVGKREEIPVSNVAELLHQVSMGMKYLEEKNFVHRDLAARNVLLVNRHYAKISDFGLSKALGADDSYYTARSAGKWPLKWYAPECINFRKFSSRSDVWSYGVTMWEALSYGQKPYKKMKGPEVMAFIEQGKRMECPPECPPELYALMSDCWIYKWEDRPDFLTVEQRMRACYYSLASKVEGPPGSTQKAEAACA
Test: ELISA kinase assay with purified kinase expressed in Sf9, poly Glu:Tyr ([…]) substrate
Type: biochemical
measurement-name: IC50

Input line: Report value only: IC50, ZAP-70 (Homo sapiens, UniProt P43403), Oc1c(Br)cc(-c2cc(Br)c(O)c(Br)c2O)c(O)c1Br [tebrophen]
Output line: 340 nM
